Reported pest or weed control at 100 ppm by item:
System: Puccinia triticina
Test: Fungicidal activity: wheat brown rust (PUCCRT), disease control on wheat seedlings
Assay type: in vivo, Puccinia triticina on wheat plants (variety Yuma)
Conditions: 24 h, high volume application, 100 ppm, 1 day protectant, read-out: PUCCRT 1DP disease control, HV activity at 100 ppm

Here is how some compounds turned out for pest or weed control at 100 ppm.
- COc1cc(F)ccc1[C@H](c1ccccc1)[C@H](C)OC(=O)[C@H](C)NC(=S)c1nccc(OC)c1O [Compound 12]: > 80%
- COc1ccnc(C(=S)N[C@@H](C)C(=O)O[C@@H](C)C(c2ccc(F)cc2)c2ccc(F)cc2)c1O [Compound 39]: ≤ 80%

Challenge: What pest or weed control at 100 ppm appears in the records for this compound with Puccinia triticina? COc1ccnc(C(=S)N[C@@H](C)C(=O)O[C@H](C(C)C)[C@H](C)Oc2ccc(C)cc2)c1O [Compound 1]
Response given: > 80%

====

Quick list: pest or weed control at 100 ppm per entry.
System: Puccinia triticina
Assay: Fungicidal activity: wheat brown rust (PUCCRT), disease control on wheat seedlings
Format: in vivo, Puccinia triticina on wheat plants (variety Yuma)
Details: 24 h, high volume application, 100 ppm, 1 day protectant, read-out: PUCCRT 1DP disease control, HV activity at 100 ppm

* COc1ccnc(C(=S)N[C@@H](C)C(=O)O[C@H](C)C(c2ccc(F)cc2)c2ccc(F)cc2)c1O | ≤ 80%

Challenge: // returns reported pest or weed control at 100 ppm for input COc1ccnc(C(=S)N[C@@H](C)C(=O)O[C@@H](C)[C@H](Oc2ccccc2)c2ccc(F)cc2C)c1O
Response given: > 80%

Challenge: I have this molecule here, CC[C@H](OC(=O)[C@H](C)NC(=S)c1nccc(OC)c1O)[C@@H](C)Oc1ccccc1 , and I need its recorded pest or weed control at 100 ppm.
Response given: ≤ 80%

Challenge: So what does the record say about pest or weed control at 100 ppm for COc1ccc(C(c2ccc(OC)cc2F)[C@H](C)OC(=O)[C@H](C)NC(=S)c2nccc(OC)c2O)c(F)c1 ?
Response given: > 80%

====

Tested on: Zymoseptoria tritici
Assay: Fungicidal activity: leaf blotch of wheat (SEPTTR), disease control on wheat seedlings
Assay type: in vivo, Zymoseptoria tritici on wheat plants (variety Yuma)
Conditions: 24 h, low volume application, 121.5 g/H, 1 day protectant, read-out: SEPTTR 1DP disease control, LV activity at 121.5 g/H
Below, each of the compounds is paired with its reported pest or weed control at 121.5 g/ha value.

Some solved cases for reference:
* COc1ccnc(C(=S)N[C@@H](C)C(=O)O[C@H](C(C)C)[C@H](C)Oc2ccc(F)cc2)c1OC(C)=O | > 80%
* COc1ccnc(C(=S)N[C@@H](C)C(=O)O[C@H](C(C)C)[C@H](C)Oc2ccccc2)c1OC(C)=O | ≤ 80%
* COc1ccnc(C(=S)N[C@@H](C)C(=O)O[C@@H](C)[C@@H](c2ccc(F)cc2)c2ccc(F)cc2C)c1OC(C)=O | > 80%

Challenge: Tell me the measured pest or weed control at 121.5 g/ha of COc1cc(C)ccc1C(c1ccc(C)cc1OC)[C@H](C)OC(=O)[C@H](C)NC(=S)c1nccc(OC)c1OC(C)=O , please.
Response given: > 80%

Challenge: What measured pest or weed control at 121.5 g/ha goes with COc1ccnc(C(=S)N[C@@H](C)C(=O)O[C@@H](C)[C@H](Oc2ccccc2Cl)c2ccccc2)c1OC(C)=O ?
Response given: > 80%

Challenge: I would be grateful if you could share the reported pest or weed control at 121.5 g/ha for COc1ccnc(C(=S)N[C@@H](C)C(=O)O[C@@H](C)C(c2ccc(F)cc2F)c2ccc(F)cc2F)c1OC(C)=O .
Response given: > 80%

Challenge: Look at this compound and give its reported pest or weed control at 121.5 g/ha. COc1ccnc(C(=S)N[C@@H](C)C(=O)O[C@@H](C)C(c2ccc(C)cc2C)c2ccc(C)cc2C)c1OC(C)=O
Response given: > 80%

Challenge: Given the compound COc1ccnc(C(=S)N[C@@H](C)C(=O)O[C@H](C)C(c2ccc(F)cc2)c2ccc(F)cc2)c1OC(C)=O , what is its reported pest or weed control at 121.5 g/ha?
Response given: ≤ 80%
